The measured values listed here are drawn from the supplement of paper PMC11061612.

tested on: OCI-M1 (Acute Myeloid Leukemia); experiment: Bliss excess, mean over the matrix (fraction); higher = more synergy
Measured quantity: Bliss excess

INSERT INTO assay_data (molecule, value) VALUES
  ('Cc1c2c(nn1C)CSCc1cc(n(C)n1)CSc1cc(c3ccccc3c1)OCCCc1c(C(=O)O)n(C)c3c-2c(Cl)ccc13 [AZD5991] + CCN(CCO)CCCOc1ccc2c(Nc3cc(CC(=O)Nc4cccc(F)c4)[nH]n3)ncnc2c1 [AZD2811] (first compound max 1 µM, 7x7, partner max 1 µM)', 0.068),
  ('C=CCn1c(=O)c2cnc(Nc3ccc(N4CCN(C)CC4)cc3)nc2n1-c1cccc(C(C)(C)O)n1 [AZD1775] + C[C@@H]1COCCN1C2=NC(=NC(=C2)C3(CC3)[S@](=N)(=O)C)C4=C5C=CNC5=NC=C4 [AZD6738] (first compound max 1 µM, partner max 10 µM)', 0.0327);

====

test system: L-363 (Plasma Cell Myeloma); assay: Bliss excess, mean over the matrix (fraction); higher = more synergy
Let's look at some compounds and their measured Bliss excess.
Measured quantity: Bliss excess

INSERT INTO measurements (compound, value) VALUES
  ('COc1cc2ncnc(Nc3ccc(F)c(Cl)c3)c2cc1OCCCN1CCOCC1 [Gefitinib] + CC(C)n1c(=O)n(C)c2cnc3cc(F)c(-c4ccc(OCCCN5CCCCC5)nc4)cc3c21 [AZD1390] (first compound max 10 µM, 7x7, partner max 0.3 µM)', -0.0135),
  ('CN(CCO)CC[C@H](CSc1ccccc1)Nc1ccc(S(=O)(=O)NC(=O)c2ccc(N3CCC([C@@H](O)c4ccccc4-c4ccc(Cl)cc4)CC3)cc2)cc1S(=O)(=O)C(F)(F)F [AZD4320] + CS(=O)(=O)CCNCc1ccc(-c2ccc3ncnc(Nc4ccc(OCc5cccc(F)c5)c(Cl)c4)c3c2)o1 [Lapatinib] (first compound max 1 µM, 7x7, partner max 10 µM)', 0.0082),
  ('CN(CCO)CC[C@H](CSc1ccccc1)Nc1ccc(S(=O)(=O)NC(=O)c2ccc(N3CCC([C@@H](O)c4ccccc4-c4ccc(Cl)cc4)CC3)cc2)cc1S(=O)(=O)C(F)(F)F [AZD4320] + CN(C)CCCOc1ccc(-c2ccc3ncc4c(c3c2)n(C2CCOCC2)c(=O)n4C)cn1 [AZD0156] (first compound max 1 µM, 7x7, partner max 1 µM)', -0.0005);

====

test system: NCI-H1648 (Lung Adenocarcinoma); test: Bliss excess, mean over the matrix (fraction); higher = more synergy
Measured quantity: Bliss excess

INSERT INTO measurements (compound, measured_quantity, value) VALUES
  ('Cc1c2c(nn1C)CSCc1cc(n(C)n1)CSc1cc(c3ccccc3c1)OCCCc1c(C(=O)O)n(C)c3c-2c(Cl)ccc13 [AZD5991] + Cn1cnc2c(F)c(Nc3ccc(Br)cc3Cl)c(C(=O)NOCCO)cc21 [Selumetinib] (first compound max 1 µM, 7x7, partner max 3 µM)', 'Bliss excess', 0.0396),
  ('Cn1cnc2c(F)c(Nc3ccc(Br)cc3Cl)c(C(=O)NOCCO)cc21 [Selumetinib] + C[C@@H]1COCCN1C2=NC(=NC(=C2)C3(CC3)[S@](=N)(=O)C)C4=C5C=CNC5=NC=C4 [AZD6738] (first compound max 10 µM, 7x7, partner max 10 µM)', 'Bliss excess', -0.0259),
  ('CN(CCO)CC[C@H](CSc1ccccc1)Nc1ccc(S(=O)(=O)NC(=O)c2ccc(N3CCC([C@@H](O)c4ccccc4-c4ccc(Cl)cc4)CC3)cc2)cc1S(=O)(=O)C(F)(F)F [AZD4320] + CS(=O)(=O)CCNCc1ccc(-c2ccc3ncnc(Nc4ccc(OCc5cccc(F)c5)c(Cl)c4)c3c2)o1 [Lapatinib] (first compound max 1 µM, 7x7, partner max 10 µM)', 'Bliss excess', -0.0316),
  ('C[C@@H](Nc1cc(F)cc(F)c1)c1cc(C(=O)N(C)C)cc2c(=O)cc(N3CCOCC3)oc12 [AZD8186] + CC(=O)c1c(C)c2cnc(Nc3ccc(N4CCNCC4)cn3)nc2n(C2CCCC2)c1=O [Palbociclib] (first compound max 10 µM, 7x7, partner max 10 µM)', 'Bliss excess', 0.0672),
  ('NC1(C(=O)N[C@@H](CCO)c2ccc(Cl)cc2)CCN(c2ncnc3[nH]ccc23)CC1 [Capivasertib] + COc1nnc2ccc(N3CCC(c4ccc(OCCN5CCN(C)C(=O)[C@H]5C)cc4)CC3)nn12 [AZD5153] (first compound max 10 µM, 7x7, partner max 1 µM)', 'Bliss excess', -0.0694),
  ('N#Cc1cnc(Nc2cc(NC[C@H]3CNCCO3)c(C(F)(F)F)cn2)cn1 [SRA737] + C=CCn1c(=O)c2cnc(Nc3ccc(N4CCN(C)CC4)cc3)nc2n1-c1cccc(C(C)(C)O)n1 [AZD1775] (first compound max 10 µM, partner max 1 µM)', 'Bliss excess', -0.0116),
  ('CC1(C)CCC(CN2CCN(c3ccc(C(=O)NS(=O)(=O)c4ccc(NCC5CCOCC5)c([N+](=O)[O-])c4)c(Oc4cnc5[nH]ccc5c4)c3)CC2)=C(c2ccc(Cl)cc2)C1 [Venetoclax] + C=CCn1c(=O)c2cnc(Nc3ccc(N4CCN(C)CC4)cc3)nc2n1-c1cccc(C(C)(C)O)n1 [AZD1775] (first compound max 1 µM, partner max 1 µM)', 'Bliss excess', -0.0451),
  ('Cc1cc2ncnn2cc1Nc1ncc2c(n1)n(C1CCOCC1)c(=O)n2C [AZD7648] + CN(C)CCCOc1ccc(-c2ccc3ncc4c(c3c2)n(C2CCOCC2)c(=O)n4C)cn1 [AZD0156] (first compound max 10 µM, 7x7, partner max 1 µM)', 'Bliss excess', 0.0176),
  ('COc1nnc2ccc(N3CCC(c4ccc(OCCN5CCN(C)C(=O)[C@H]5C)cc4)CC3)nn12 [AZD5153] + Cn1cnc2c(F)c(Nc3ccc(Br)cc3Cl)c(C(=O)NOCCO)cc21 [Selumetinib] (first compound max 1 µM, 7x7, partner max 10 µM)', 'Bliss excess', 0.0093),
  ('C[C@@H]1COCCN1c1cc(C2([S@](C)(=N)=O)CC2)nc(-c2ccnc3[nH]ccc23)n1 [AZD6738] + Nc1ccn([C@@H]2O[C@H](CO)[C@@H](O)C2(F)F)c(=O)n1 [Gemcitabine] (first compound max 10 µM, 7x7, partner max 0.3 µM)', 'Bliss excess', 0.0542),
  ('N#Cc1cnc(Nc2cc(NC[C@H]3CNCCO3)c(C(F)(F)F)cn2)cn1 [SRA737] + Nc1ccn([C@@H]2O[C@H](CO)[C@@H](O)C2(F)F)c(=O)n1 [Gemcitabine] (first compound max 10 µM, 7x7, partner max 0.3 µM)', 'Bliss excess', 0.0912);

====

system: CAL-85-1 (Breast Carcinoma); test: combination Emax (second highest fraction inhibited in the dose matrix, 72 h); higher = more inhibition; extreme values may be limits of the assay
Let's look at some compounds and their measured combination Emax.
Measured quantity: combination Emax

INSERT INTO measurements (compound, target_desc, value) VALUES
  ('CC1(C)CCC(CN2CCN(c3ccc(C(=O)NS(=O)(=O)c4ccc(NCC5CCOCC5)c([N+](=O)[O-])c4)c(Oc4cnc5[nH]ccc5c4)c3)CC2)=C(c2ccc(Cl)cc2)C1 [Venetoclax] + CS(=O)(=O)CCNCc1ccc(-c2ccc3ncnc(Nc4ccc(OCc5cccc(F)c5)c(Cl)c4)c3c2)o1 [Lapatinib] (first compound max 1 µM, 7x7, partner max 10 µM)', 'CAL-85-1 (Breast Carcinoma)', 0.657),
  ('Cc1cc2ncnn2cc1Nc1ncc2c(n1)n(C1CCOCC1)c(=O)n2C [AZD7648] + CN(C)CCCOc1ccc(-c2ccc3ncc4c(c3c2)n(C2CCOCC2)c(=O)n4C)cn1 [AZD0156] (first compound max 10 µM, 7x7, partner max 1 µM)', 'CAL-85-1 (Breast Carcinoma)', 0.371),
  ('CC1(C)CCC(CN2CCN(c3ccc(C(=O)NS(=O)(=O)c4ccc(NCC5CCOCC5)c([N+](=O)[O-])c4)c(Oc4cnc5[nH]ccc5c4)c3)CC2)=C(c2ccc(Cl)cc2)C1 [Venetoclax] + C[C@@H]1COCCN1C2=NC(=NC(=C2)C3(CC3)[S@](=N)(=O)C)C4=C5C=CNC5=NC=C4 [AZD6738] (first compound max 1 µM, 7x7, partner max 10 µM)', 'CAL-85-1 (Breast Carcinoma)', 0.571);

====

tested on: HT-1197 (Bladder Carcinoma); test: combination Emax (second highest fraction inhibited in the dose matrix, 72 h); higher = more inhibition; extreme values may be limits of the assay
Criterion: combination Emax meeting or surpassing 0.4. Met: Satisfied. Not met: Not satisfied.

INSERT INTO assay_data (compound, class) VALUES
  ('Cc1c2c(nn1C)CSCc1cc(n(C)n1)CSc1cc(c3ccccc3c1)OCCCc1c(C(=O)O)n(C)c3c-2c(Cl)ccc13 [AZD5991] + C[C@@H](Nc1cc(F)cc(F)c1)c1cc(C(=O)N(C)C)cc2c(=O)cc(N3CCOCC3)oc12 [AZD8186] (first compound max 1 µM, 7x7, partner max 3 µM)', 'Not satisfied'),
  ('C[C@@H](c1ccc2nccn2c1)n1nnc2ncc(-c3cnn(C)c3)nc21 [Savolitinib] + CC1(C)CCC(CN2CCN(c3ccc(C(=O)NS(=O)(=O)c4ccc(NCC5CCOCC5)c([N+](=O)[O-])c4)c(Oc4cnc5[nH]ccc5c4)c3)CC2)=C(c2ccc(Cl)cc2)C1 [Venetoclax] (first compound max 1 µM, 7x7, partner max 1 µM)', 'Not satisfied'),
  ('COc1nnc2ccc(N3CCC(c4ccc(OCCN5CCN(C)C(=O)[C@H]5C)cc4)CC3)nn12 [AZD5153] + C[C@@H]1COCCN1C2=NC(=NC(=C2)C3(CC3)[S@](=N)(=O)C)C4=C5C=CNC5=NC=C4 [AZD6738] (first compound max 1 µM, 7x7, partner max 10 µM)', 'Satisfied'),
  ('CC1(C)CCC(CN2CCN(c3ccc(C(=O)NS(=O)(=O)c4ccc(NCC5CCOCC5)c([N+](=O)[O-])c4)c(Oc4cnc5[nH]ccc5c4)c3)CC2)=C(c2ccc(Cl)cc2)C1 [Venetoclax] + C[C@@H]1COCCN1C2=NC(=NC(=C2)C3(CC3)[S@](=N)(=O)C)C4=C5C=CNC5=NC=C4 [AZD6738] (first compound max 1 µM, 7x7, partner max 10 µM)', 'Satisfied'),
  ('COc1nnc2ccc(N3CCC(c4ccc(OCCN5CCN(C)C(=O)[C@H]5C)cc4)CC3)nn12 [AZD5153] + CC1(C)CCC(CN2CCN(c3ccc(C(=O)NS(=O)(=O)c4ccc(NCC5CCOCC5)c([N+](=O)[O-])c4)c(Oc4cnc5[nH]ccc5c4)c3)CC2)=C(c2ccc(Cl)cc2)C1 [Venetoclax] (first compound max 1 µM, 7x7, partner max 1 µM)', 'Satisfied');
